Value source: ChEMBL document CHEMBL1126688

Item-by-item account of pIC50
Species: Homo sapiens
Assay: Inhibitory activity against platelet aggregation, induced by U-46619 in human platelet rich plasma
Format: functional
Conditions: read-out: I50
Please express pIC50 as -log10 of the molar concentration.

Please review the entries below; each comes with its answer.
1) O=C(O)CCc1ccccc1CC1C2CCC(O2)C1c1nc(C(=O)NCCCCc2ccccc2)co1 (stereo not given) :: 7.89
2) NC(=O)c1coc(C2C3CCC(O3)C2Cc2ccccc2CCC(=O)O)n1 (stereo not given) :: 6.59

Q: Dear colleague, I am looking for the recorded pIC50 of the following molecule: CC(C)(C)NC(=O)c1coc(C2C3CCC(O3)C2Cc2ccccc2CCC(=O)O)n1 (stereo not given)
Ans: 7.21

Q: Dear colleague, I am looking for the recorded pIC50 of the following molecule: O=C(O)CCc1ccccc1CC1C2CCC(O2)C1c1nc(C(=S)NCCCCC2CCCCC2)co1 (stereo not given)
Ans: 8.05

Q: Dear colleague, I am looking for the recorded pIC50 of the following molecule: O=C(O)CCc1ccccc1CC1C2CCC(O2)C1c1nc(/C=C/CCCCC2CCCCC2)co1 (stereo not given)
Ans: 5.56
